Cited source: paper PMC10620989

- targetUnderTest: GST-tagged mouse Mcl-1-(152–309) (Mus musculus, UniProt P97287)
- Sequence (P97287 152-309): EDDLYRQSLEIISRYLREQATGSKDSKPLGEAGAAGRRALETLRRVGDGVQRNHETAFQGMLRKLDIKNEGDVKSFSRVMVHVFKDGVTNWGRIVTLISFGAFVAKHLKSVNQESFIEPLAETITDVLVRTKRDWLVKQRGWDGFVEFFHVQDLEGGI
- runDescription: Fluorescence polarization competitive binding assay, GST-Mcl-1 / FITC-Bim-BH3
- conditionInfo: FP, GST-Mcl-1 and fluorescein-labeled Bim BH3 peptide; read-out: IC50 on Mcl-1
parameterMeasured: IC50 (µM)
Give bare numbers, in µM.

Sample answers from the record:
Identify the measured IC50 of "O=C(Cn1c2ccccc2c2ccccc21)NS(=O)(=O)c1ccc(CN(CCSc2ccccc2)Cc2ccc3c(c2)OCO3)cc1" for GST-tagged mouse Mcl-1-(152–309) (Mus musculus, UniProt P97287). 14

Next record, please: "Cc1nc(-c2ccccc2)sc1C(=O)NS(=O)(=O)c1ccc(CN(CCSc2ccccc2)Cc2ccc3c(c2)OCO3)cc1" 9.4

Read the next record carefully.
Field: IC50 (GST-tagged mouse Mcl-1-(152–309) (Mus musculus, UniProt P97287)). Entry: "[N-]=[N+]=NS(=O)(=O)c1ccc(CN(CCSc2ccccc2)Cc2ccc(S(=O)(=O)NC(=O)c3cccc4ccccc34)cc2)cc1" 8.2
